experiment: chemical genetic growth profiling, strain panel (AID 1159580);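 further: tested at 20 µM; growth read once vehicle control cultures reached saturation at 30 °C; 1 = growth at the plate median or of vehicle wells; lower values mean less growth of the strain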; conditions: S. cerevisiae deletion strains, growth OD, locus YJL164C, strain tpk1, stronger effect = lower value
About 2,000 (36%) of roughly 5,500 compounds were called active. Inconclusive results (about 18%) are left out. The list shows a part of the results.
quantity-kind: normalized growth

Guide cases for normalized growth, answers given:
compound	normalized growth
C/C1=C/CC(C)(C)/C=C/C/C(C)=C/CC1	1.01 (inactive)
C=C1C[C@]23C[C@@]1(O)CC[C@H]2[C@@]12C=C[C@H](O)[C@@](C)(C(=O)O1)[C@H]2[C@@H]3C(=O)O	1.01 (inactive)
CC[N+](C)(C)c1cccc(O)c1	0.996 (inactive)

Kindly indicate its recorded normalized growth. Item: `COc1ccc([C@@H]2CC(=O)c3c(O)cc(O[C@@H]4O[C@H](CO[C@H]5O[C@@H](C)[C@H](O)[C@@H](O)[C@H]5O)[C@@H](O)[C@H](O)[C@H]4O)cc3O2)cc1O` 1.01 (inactive)

Kindly indicate its recorded normalized growth. Item: `COc1cc(C(C)=O)cc(OC)c1O` 1 (inactive)

Kindly indicate its recorded normalized growth. Item: `CC(=O)Oc1ccc(O)cc1` 0.975 (inactive)

Kindly indicate its recorded normalized growth. Item: `CN(C)CCCN1c2ccccc2CCc2ccc(Cl)cc21` 0.993 (inactive)

Kindly indicate its recorded normalized growth. Item: `CC(=O)Nc1ccc(S(=O)(=O)Nc2onc(C)c2C)cc1` 0.982 (inactive)
